Test system: SF-295 CNS
experiment: NCI-60 one-dose screen, 48 h
test_parameters: 10 µM unless noted
Procedure: Cells are grown in 96 well plates and exposed to the test compound for 48 hours. Compounds are tested at a single concentration, which is 10^-5 M for most compounds. The reported endpoint is percent growth (GI% or GIPRCNT), where numbers from 0 - 100% represent growth inhibition, and numbers from -100% - 0 represent cell death. For example, a value of 40 represents 60% growth inhibition. A value of 0 means no net growth occurred over the course of the experiment. […]
About 83,000 compounds went through this panel and 20% of them were active in at least one assay; those are over-represented in the sample as a whole. Active and inactive are the calls of the source. How the source made its calls: active means growth percent below 10; inactive means the rest.
Respond only with the outcome that fits, drawn from y for active, n for inactive

The following molecules have reported results that may help.
NC1=NC(c2cccc(Br)c2)c2sc3ccc(Cl)cc3c2N1 (stereo not given); n
Cc1ccc(-c2nc(N3CCN(C(=O)c4ccc(OC(F)(F)F)cc4)CC3)c3ccccc3n2)cc1; n
COc1cc(Nc2cn[nH]c2-c2ccc(Cl)cc2)cc(OC)c1OC; n
COc1ccc(-c2cc3c4c(nc5ccccc5c4c2)CC(c2cc(OC)c(OC)c(OC)c2)O3)cc1 (stereo not given); n

Outcome? COc1ccc(C2CC(c3ccc(Nc4ccnc5cc(Cl)ccc45)cc3)=NN2C=O)cc1 (stereo not given)
n

Outcome? "COc1cc(CCC[P+](c2ccccc2)(c2ccccc2)c2ccccc2)c(OC)c2c1OCO2"
n

Outcome? COc1cc(C2CC(c3ccc(SC)cc3)=NN2C(C)=O)cc(OC)c1OC (stereo not given)
n

Outcome? CCC12CCC[N+]3([O-])CCC4(C(=Nc5ccccc54)C(O)(C(=O)OC)C1)C23 (stereo not given)
n

---

Some compounds, each annotated with its measured growth.
System: IGROV1 ovarian
experiment: NCI-60 one-dose screen, 48 h (100 = growth as untreated, 0 = no growth, -100 = all killed)
test_parameters: 10 µM unless noted
About 83,000 compounds went through this panel and 20% of them were active in at least one assay; those are over-represented in the sample as a whole.
Please reply with the bare figure in % and do not write the unit itself.

C=C1C(=O)O[C@H]2[C@H]1CC/C(COC(=O)CSCC(=O)OC/C1=C/CC[C@@]3(C)O[C@H]3[C@H]3OC(=O)C(=C)[C@@H]3CC1)=C\CC[C@@]1(C)O[C@@H]21; 7.28
Cc1ccccc1C(=O)NN; 85.8
COc1ccc(N2C(=O)C(Oc3ccccc3)C2c2ccc(C)cc2)cc1 (stereo not given); 102
COc1ccc2nc(NC(=O)c3cccnc3Nc3ccc(S(N)(=O)=O)cc3)sc2c1; 134
CNc1ccc(Nc2cccc(C)c2)c2c1C(=O)c1ccccc1C2=O; 11.2
COc1ccc(-c2conc2-c2ccccc2)cc1; 26.2
CCC12CCC[N+]3([O-])CCC4(C(=Nc5ccccc54)C(O)(C(=O)OC)C1)C23 (stereo not given); 138
Fc1cc(-c2nnc3sc(-c4ccc(Cl)cc4Cl)nn23)c(Cl)cc1Cl; 86.1

What value of growth has been recorded for this entry: "COc1cc(C(=O)N/N=C/c2cc3cc(OCc4ccccc4)ccc3nc2OC)cc(OC)c1OC"
111

What value of growth has been recorded for this entry: CCCCC1CCCC12NC(=O)NC2=O (stereo not given)
88.8

---

Test system: T-47D breast
experiment: NCI-60 one-dose screen, 48 h (100 = growth as untreated, 0 = no growth, -100 = all killed)
test_parameters: 10 µM unless noted
About 83,000 compounds went through this panel and 20% of them were active in at least one assay; those are over-represented in the sample as a whole.
reported_metric: growth (%)
Please reply with the bare figure in % and do not write the unit itself.

O=S(=O)(NCCCNc1cc(-c2c(-c3cccc(O)c3)nc3sccn23)ccn1)c1cccc2ccccc12; 8.57
COc1nc2ccc(C)cc2cc1-c1nc2c(cnn2-c2ccccc2)c(=O)[nH]1; 81.9
Cc1oc2nc[nH]c(=O)c2c1C(=O)/C=C/c1ccc(Br)cc1; 4.69
COc1ccc(OC)c(/C=C/C(=O)N/N=C/c2ccc(Cl)cc2)c1; 29.5
COc1c(B(O)O)cc(C)cc1-c1nc2ccc3[nH]ncc3c2c2c1CCCC2; 78.5

Attention now shifts to the item below.
What value of growth has been recorded for this entry: "Cc1c(C(=O)/C=C/Nc2c(Cl)cc(S(N)(=O)=O)cc2Cl)sc2nc3ccccc3n12"
97.8

---

Test system: SW-620 colon
experiment: NCI-60 one-dose screen, 48 h (100 = growth as untreated, 0 = no growth, -100 = all killed)
test_parameters: 10 µM unless noted
About 83,000 compounds went through this panel and 20% of them were active in at least one assay; those are over-represented in the sample as a whole.
// boundary case: growth equal to 90% maps to 0 (no); strictly smaller maps to 1 (yes)

The following compounds have reported results that may help.
c1ccc(-c2nc3nonc3nc2-c2ccccc2)cc1; 1 (yes)
COc1cc(C(=O)c2cc(C)c3[nH]c4ccc(C)cc4c3c2C)cc(OC)c1OC; 1 (yes)
COc1cc2cc(Oc3ccc(NC(=O)Nc4ccc(Cl)c(Cl)c4)cc3)c(C)nc2cc1OCCN1CCOCC1; 0 (no)

Does C=C(C)C1CCC2(C)OC2C1 (stereo not drawn) have growth strictly under 90%?
0 (no)

Does "CC(C)OC(=O)Nc1ccc(-c2nc(-c3cccc(OCCN4CCOCC4)c3)c(-c3ccnc(Br)c3)[nH]2)cc1" have growth strictly under 90%?
1 (yes)

Does "NS(=O)(=O)c1ccc(-n2nc(-c3ccc(Cl)cc3)c3ccccc3c2=O)cc1" have growth strictly under 90%?
0 (no)

Does "c1ccc2cc(C[n+]3ccn(CCCCCCn4cc[n+](Cc5ccc6ccccc6c5)c4)c3)ccc2c1" have growth strictly under 90%?
0 (no)

Does "COc1ccc(-c2cc(-c3cc(OC)c(OC)c(OC)c3)nc(N3CCOCC3)c2C#N)cc1" have growth strictly under 90%?
1 (yes)

Does "COc1nc2ccccc2cc1-c1nc2c(cnn2-c2ccc(Br)cc2)c(=O)[nH]1" have growth strictly under 90%?
1 (yes)

Does OC(COc1ccccc1)CN1CCN(c2ccc(Cl)cc2)CC1 (stereo not drawn) have growth strictly under 90%?
0 (no)

Does "Cc1cc(Cl)ccc1NS(=O)(=O)c1ccc(-c2cnc(C3CC3)o2)cc1" have growth strictly under 90%?
1 (yes)

Does "CCOc1c(B(O)O)cccc1-c1nc2ccc3[nH]ncc3c2c2c1CCCC2" have growth strictly under 90%?
1 (yes)

---

System: M14 melanoma
experiment: NCI-60 one-dose screen, 48 h (100 = growth as untreated, 0 = no growth, -100 = all killed)
test_parameters: 10 µM unless noted
The panel holds about 83,000 compounds, 20% with a hit somewhere; the sample as a whole holds those more often.
reported_metric: growth (%)
Please reply with the bare figure in % and do not write the unit itself.

CCOC(=O)c1cn2ncnc(Oc3ccc(NC(=O)NCCN(CC)CC)c(Cl)c3)c2c1C; -64.4
COc1ccc(OC)c(/C=C2\Oc3cc(OCCN4CCC(Cc5ccccc5)CC4)ccc3C2=O)c1; 77.2
CC(=O)CC[C@H]1C(=O)N[C@@H](C(C)C)C(=O)N[C@@H](Cc2cc(O)cc(F)c2)C(=O)N2CCC[C@H](N2)C(=O)O[C@H](/C(C)=C/C=C/C(=O)OC(C)(C)C)C/C=C/C=C/[C@H](O)[C@H](C)[C@H]1O; 54.9
CNCCCNc1nc2ccccc2c2c(=O)c3cc(F)ccc3sc12; -53.2
NC(=O)Nc1ccc2ncnc(Nc3ccc(Cl)cc3)c2c1; 107

What value of growth has been recorded for this entry: "O=C(Nc1ccc(-c2nc(-c3cccc(OCCN4CCOCC4)c3)c(-c3ccnc(Br)c3)[nH]2)cc1)c1ccccc1"
6.5

What value of growth has been recorded for this entry: "COc1c(B(O)O)cc(F)cc1-c1nc2ccc3[nH]ncc3c2c2c1CCCC2"
28.3

What value of growth has been recorded for this entry: "O=C(Nc1ccc(Cl)cc1F)c1ccccc1O"
46.4

---

Tested on: SF-268 CNS
experiment: NCI-60 one-dose screen, 48 h (100 = growth as untreated, 0 = no growth, -100 = all killed)
test_parameters: 10 µM unless noted
Method: Cells are grown in 96 well plates and exposed to the test compound for 48 hours. Compounds are tested at a single concentration, which is 10^-5 M for most compounds. The reported endpoint is percent growth (GI% or GIPRCNT), where numbers from 0 - 100% represent growth inhibition, and numbers from -100% - 0 represent cell death. For example, a value of 40 represents 60% growth inhibition. A value of 0 means no net growth occurred over the course of the experiment. […]
The panel holds about 83,000 compounds, 20% with a hit somewhere; the sample as a whole holds those more often.
Class TRUE: growth at least 70%. Class FALSE: growth below 70%.

CCCCNC(=O)Oc1ccc(/C(=C(\C)c2ccc(Cl)cc2)c2ccc(OCCN(CC)CC)cc2)cc1; FALSE

State whether the measured growth reaches 70%, counting equality as reaching it, for "COc1ccc(-c2nc3sc(-c4ccc(Cl)cc4)cn3n2)cc1"
FALSE

State whether the measured growth reaches 70%, counting equality as reaching it, for "COc1cccc(/C=C2\C=C(c3ccccc3)N(Cc3ccccc3)C2=O)c1"
FALSE

State whether the measured growth reaches 70%, counting equality as reaching it, for "O=C(O)c1cn(C2CC2)c2cc(N3CCN(C(=O)Nc4nc(-c5ccccc5)cs4)CC3)c(F)cc2c1=O"
FALSE

State whether the measured growth reaches 70%, counting equality as reaching it, for "CC(C)C(=O)Nc1ccc(-c2nc(-c3cccc(OCCN4CCOCC4)c3)c(-c3ccnc(Br)c3)[nH]2)cc1"
FALSE

State whether the measured growth reaches 70%, counting equality as reaching it, for "COc1ccc(-c2cc(-c3ccc(Cl)cc3)c(C#N)c(=O)n2CCCCCC(=O)Nc2ccccc2N)cc1"
TRUE

State whether the measured growth reaches 70%, counting equality as reaching it, for "CCN(CC)S(=O)(=O)c1ccc(NC(=O)CSc2nnc(C)n2-c2ccccc2)cc1"
TRUE
